# flash point annotations
Express your answer in °C, writing the number without its unit.

Determine its reported flash point: CCCCOCCOC(C)=O [2-butoxyethylacetate]
71

Determine its reported flash point: "CC(C)(C)CC(C)(C)C"
6

Determine its reported flash point: CCCCCC1CCCC1=O (stereo not drawn)
78

Determine its reported flash point: "CCOCC"
-40

Determine its reported flash point: C=CCSCCC [allylpropylsulfide]
29

Determine its reported flash point: "c1ccsc1"
-9

Determine its reported flash point: "CCCCCCCCCCCO"
115

Determine its reported flash point: "OCCCl"
55

====

# flash point annotations
Report as: number unit

Check out these entries, answers already filled in.
[
  {
    "COMPOUND": "Clc1cccc([Si](Cl)(Cl)Cl)c1Cl [Trichloro(dichlorophenyl)silane]",
    "flash point": "146.00 °C"
  },
  {
    "COMPOUND": "CC[Si](Cl)(Cl)Cl [Ethyltrichlorosilane]",
    "flash point": "-10.00 °C"
  },
  {
    "COMPOUND": "C=C[Si](C)(CC)CC [Vinyldiethylmethylsilane]",
    "flash point": "15.00 °C"
  },
  {
    "COMPOUND": "C[Si](C)(C)Cc1ccccc1 [Benzyltrimethylsilane]",
    "flash point": "62.00 °C"
  },
  {
    "COMPOUND": "FC(F)(F)CC[Si](Cl)(Cl)Cl [Trichloro(3,3,3-trifluoropropyl)silane]",
    "flash point": "15.00 °C"
  },
  {
    "COMPOUND": "CN(C)[Si](C)(C)C [(N,N-Dimethylamino)trimethylsilane]",
    "flash point": "-18.6 °C"
  }
]

Determine its reported flash point: C[Si](C)(C)O[Si](C)(C)O[Si](C)(C)O[Si](C)(C)Cl [1-Chlorononamethyltetrasiloxane]
74.00 °C

Determine its reported flash point: CO[SiH](OC)OC [Trimethoxysilane]
-9.00 °C
